Assay: Viability qHTS for spleen associated tyrosine kinase inhibitor (SYKi) drug resistant MV4-11 cells (AID 1963824); also: nearly all actives have a fitted effect of over 35% in size
Settings: SYKi-resistant MV4-11 viability, CellTiter-Glo, 72 h; series mostly up to 45 µM
Inconclusive results are not listed. The source made the active and inactive calls. Calls follow the shape of the dose curve; as a rule, active = well fitted cell-killing curve with a large enough effect; inconclusive = small, poorly fitted or top-dose-only effect, or effect the other way; inactive = no such curve, though single readings can be large or run the other way.
In this exercise, the only acceptable responses are active, inactive

Worked examples, 3 compounds total:
compound	class_name
CN1CCN(C2=Nc3ccccc3Nc3ccc(OS(=O)(=O)C(F)(F)F)cc32)CC1	active
CC(C)n1nc(C#Cc2ccccc2)c2c(N)ncnc21	active
CC(C)CCNC(=O)[C@H](CC(C)C)NC(=O)[C@H]1O[C@@H]1C(=O)O	inactive

Next, consider the following compound.
Ask | Hi, sorry to bother you, what did the test record for C[C@@H]1C(=O)O[C@H]2[C@H](O)C34[C@H]5C[C@@H](C(C)(C)C)C36[C@@H](OC(=O)[C@@H]6O)O[C@@]4(C(=O)O5)[C@@]12O (some centres undefined) ?
Reply | inactive

----------
Assay: Quantitative highthroughput screen to assess conditional lethalithy of P12 Ichikawa cells grown in Human Plasma-Like Medium with dialyzed fetal bovine serum (HPLM+ds) (AID 1963879); also: nearly all actives have a fitted effect of over 35% in size
Settings: ATP luminescence, 48 h; viability; series mostly up to 45.8 µM
Procedure: Assay Provider: Jason Cantor Ph.D. Department of Biochemistry University of Wisconsin-Madison, Madison, WI, USA Chemical screening studies have identified drug sensitivities across hundreds of cancer cell lines but most putative therapeutics fail to translate. […] Sets of conditional anticancer compounds spanned phases of clinical development and included non-oncology drugs were assessed. […] 6; Detection; Luminescence, Viewlux PerkinElmer. […]
Results filed as inconclusive are left out. Active and inactive are the calls of the source. Calls come from the whole dose curve; as a rule, active = well fitted cell-killing curve with a large enough effect; inconclusive = small, poorly fitted or top-dose-only effect; inactive = flat fitted curve, though single readings scatter.
Write down one outcome, taken from yes for active, no for inactive

As a guide, the following entries are already answered.
>>> df
                                   compound  class_name
0  CC(C)Cc1ccc(C(C)C(=O)O)cc1 (configuration not stated)          no
1  O=C(O)c1cc(=O)c2c(OCC(O)COc3cccc4oc(C(=O)O)cc(=O)c34)cccc2o1          no
2  O=C(NCCS(=O)(=O)c1ccc(C(F)(F)F)cn1)c1ccc(Cl)cc1          no
3  COc1ccc2cc(-c3nc(-c4ccc(S(C)=O)cc4)[nH]c3-c3ccncc3)ccc2c1 (configuration not stated)          no
4         CCCCOc1ccc(C(=O)Nc2ccc(F)cc2F)cc1          no
5  Cc1ccc(NC(=O)c2cccc(N(C)C)c2)cc1NC(=O)c1ccc(O)cc1          no

Ask | Fill in: this test's call for `Cc1cc(CS(=O)(=O)c2ccccc2)cc(OCc2ccc(CN3CCC[C@H]3CO)cc2)c1` is ___
Reply | yes

----------
Test: Viability qHTS for spleen associated tyrosine kinase inhibitor (SYKi) drug resistant MV4-11 cells (AID 1963824); also: nearly all actives have a fitted effect of over 35% in size
Settings: SYKi-resistant MV4-11 viability, CellTiter-Glo, 72 h; series mostly up to 45 µM
Records with an inconclusive call do not appear. Calls of active or inactive are those of the source. The call rests on the fitted dose curve; in most records, active means well fitted cell-killing curve with a large enough effect; inconclusive means small, poorly fitted or top-dose-only effect, or effect the other way; inactive means no such curve, though single readings can be large or run the other way.
Outcome field: choose from yes for active, no for inactive

A selection of reference data follows.
molecule	class_name
C/C(=N\O)[C@@H](C)NCC(C)(C)CN[C@H](C)/C(C)=N/O	no
NC(=O)c1cccnc1	no
Cc1nc(NC(=O)N2CCCC2C(N)=O)sc1-c1ccnc(C(C)(C)C(F)(F)F)c1 (stereo not drawn)	yes
COC(=O)c1ccccc1C(=O)c1ccc(OCCN2CCCCC2)cc1	no
CC(CCc1ccc(O)cc1)O[C@@H]1O[C@H](CO[C@@H]2OC(CO)[C@H](O)[C@H]2O)[C@@H](O)[C@H](O)[C@H]1O (stereo partly drawn)	no
NS(=O)(=O)c1cc2c(cc1C(F)(F)F)NCNS2(=O)=O	no
OC[C@H]1O[C@@H](OC[C@H]2O[C@@H](OC/C=C/c3ccccc3)[C@H](O)[C@@H](O)[C@@H]2O)[C@@H](O)[C@@H]1O	no
CC[C@H](C=C[C@@H](C)[C@H]1CC[C@H]2[C@@H]3CC=C4C[C@@H](O)CC[C@]4(C)[C@@H]3CC[C@]12C)C(C)C	no

Ask | Call for entry `COc1ccc(F)cc1-c1cc(NC(=O)[C@@H]2CCCNC2)ncc1Cl` :
Reply | yes

Ask | # outcome recorded in this test, key = CC[C@]12C=CCN3CC[C@@]4(c5cc([C@@]6(C(=O)OC)CC7C[C@@H](C(C)(F)F)CN(Cc8c6[nH]c6ccccc86)C7)c(OC)cc5N(C)[C@H]4[C@@](O)(C(=O)OC)[C@@H]1OC(C)=O)[C@@H]32 (stereo partly drawn)
Reply | yes

----------
Assay: Quantitative highthroughput screen to assess conditional lethalithy of NOMO1 cells grown in RPMI1640 with untreated serum (RPMI+s) (AID 1963876); also: nearly all actives have a fitted effect of over 35% in size; also: potency is read from the fitted curve at half-maximal effect
Conditions: NOMO1 AML cells in RPMI+serum, CellTiter-Glo viability, 48 h; series mostly up to 45.8 µM
Results filed as inconclusive are left out. Active and inactive are the calls of the source. Calls follow the shape of the dose curve; as a rule, active = well fitted cell-killing curve with a large enough effect; inconclusive = small, poorly fitted or top-dose-only effect; inactive = flat fitted curve, though single readings scatter.
assay_readout: Potency

Use these answered entries as a reference point.
>>> print(df.to_string())
                                   molecule  assay_readout        data_value
0   Cn1cc(C=CC(=O)c2cccc(F)c2)cc1C=CC(=O)NO        Potency          inactive
1  CNCc1ccc(-c2[nH]c3cc(F)cc4c3c2CCNC4=O)cc1        Potency          inactive
2  COC(=O)N[C@H](C(=O)N[C@@H](Cc1ccccc1)[C@@H](O)CN(Cc1ccc(-c2ccccn2)cc1)NC(=O)[C@@H](NC(=O)OC)C(C)(C)C)C(C)(C)C        Potency          inactive
3  CN(C)CCOc1ccc(-c2nc(-c3ccc4c(c3)CCC4=NO)c(-c3ccncc3)[nH]2)cc1        Potency          inactive
4  COc1cc2ncnc(Nc3cc(Br)c(O)c(Br)c3)c2cc1OC        Potency          inactive
5  O=C(O)c1cc(=O)c2c(OCC(O)COc3cccc4oc(C(=O)O)cc(=O)c34)cccc2o1        Potency          inactive
6  COC(=O)N1CCN(Cc2cccc(NC(=O)Nc3ccc(C)nc3)c2F)CC1        Potency          inactive
7  O=C(OC1C[C@H]2CC[C@@H](C1)[N+]21CCCC1)C(O)(c1ccccc1)c1ccccc1 (stereo not given in full)        Potency          inactive
8  CCOC(=O)N1CCN([N+]([O-])=NOc2ccc([N+](=O)[O-])cc2C#N)CC1        Potency  3.32 µM (active)

For the next question, use this molecule.
Ask | Provide Potency value for the following molecule: `Cc1[nH]c(C=C2C(=O)Nc3ccccc32)c(C)c1CCC(=O)O`
Reply | 14.8 µM (active)

----------
Assay: Quantitative highthroughput screen to assess conditional lethalithy of SEM cells grown in RPMI1640 with dialyzed fetal bovine serum (RPMI+ds) (AID 1963884); also: nearly all actives have a fitted effect of over 35% in size; also: potency is read from the fitted curve at half-maximal effect
Conditions: SEM B-ALL cells, RPMI+dialyzed FBS, CellTiter-Glo viability, 48 h; series mostly up to 45.8 µM
Records with an inconclusive call do not appear. Calls of active or inactive are those of the source. Calls come from the whole dose curve; as a rule, active = well fitted cell-killing curve with a large enough effect; inconclusive = small, poorly fitted or top-dose-only effect, or effect the other way; inactive = no such curve, though single readings can be large or run the other way. Peptide text beside a SMILES is read from it. * marks the point of attachment. Cbz = O=C(OCc1ccccc1)*
assay_readout: Potency

Consider the reported Potency for these compounds:
                                   compound  assay_readout        data_value
0  Cc1ccc(C(=O)c2cc(O)c(O)c([N+](=O)[O-])c2)cc1        Potency          inactive
1   C[C@H](NCc1ccc(OCc2cccc(F)c2)cc1)C(N)=O        Potency   332 nM (active)
2  O=C(O)c1ccc2cc(-c3ccc(O)c(C45CC6CC(CC(C6)C4)C5)c3)ccc2c1        Potency   235 nM (active)
3  CN(C)C(=O)[C@H](O)[C@H](Cc1ccccc1)NC(=O)c1cc2cc(Cl)ccc2[nH]1        Potency  2350 nM (active)
4  CC(C)c1cnn2c(NCc3ccccc3)cc(NCCCCCCN)nc12        Potency          inactive

Ask | Item `CCOC(=O)C1=C[C@]2(CC)CCCN3CCc4c(n1c1ccccc41)[C@@H]32` : provide Potency
Reply | inactive

Ask | Read the entry CC(C)C[C@@H](C=O)NC(=O)[C@H](CC(C)C)NC(=O)[C@H](CC(C)C)NC(=O)OCc1ccccc1 (Cbz-Leu-Leu-Leu-aldehyde) and write its reported Potency.
Reply | 743 nM (active)

----------
Assay: Viability qHTS for spleen associated tyrosine kinase inhibitor (SYKi) drug resistant MV4-11 cells (AID 1963824); also: nearly all actives have a fitted effect of over 35% in size
Settings: SYKi-resistant MV4-11 viability, CellTiter-Glo, 72 h; series mostly up to 45 µM
Records with an inconclusive call do not appear. Activity calls are given as the source filed them. The call rests on the fitted dose curve; in most records, active means well fitted cell-killing curve with a large enough effect; inconclusive means small, poorly fitted or top-dose-only effect, or effect the other way; inactive means no such curve, though single readings can be large or run the other way.
Select the correct class. Options are active, inactive and nothing else.

compound	class_name
CC(=O)N/N=C/c1ccc([N+](=O)[O-])o1	active

Ask | Status in this test for `COc1cc([C@@H]2c3cc4c(cc3[C@@H](O[C@@H]3O[C@@H]5CO[C@@H](c6cccs6)O[C@H]5[C@H](O)[C@H]3O)[C@H]3COC(=O)[C@H]23)OCO4)cc(OC)c1O` ?
Reply | active

Ask | Could you check what this test reported for C=C1C(=O)OC2CC(C)=C(C(C)CCCOC(C)=O)C(OC(=O)CC(C)CC)C12 (stereo not drawn) ?
Reply | active

Ask | Query: recorded result category for `CCCc1nc2c(C)cc(-c3nc4ccccc4n3C)cc2n1Cc1ccc(-c2ccccc2C(=O)O)cc1` in this test
Reply | inactive

Ask | Record lookup: outcome of this test for C=C1C(=O)OC2C(OC(=O)C=C(C)C)C(C)=C3C(=O)C=C(C)C3C(O)C12 (stereo not drawn) ?
Reply | active

Ask | # outcome recorded in this test, key = `Cc1c(C)c2c(c(C)c1OC(=O)CCC(=O)OCCO)CC[C@@](C)(CCC[C@H](C)CCC[C@H](C)CCCC(C)C)O2`
Reply | inactive

Ask | # outcome recorded in this test, key = `CS(=O)(=O)c1cccc(CNc2nc(Nc3ccc4c(c3)CCC(=O)N4)ncc2C(F)(F)F)c1`
Reply | active

Ask | Kindly provide the recorded test outcome for the following compound: `Cc1noc2c1-c1ccccc1C(c1ccc(Cl)cc1)=N[C@H]2CC(N)=O`
Reply | active

From: PubChem BioAssay (NCATS)
